Measured values drawn from PubChem BioAssay (NCI) for this set.

Please provide measured TGI for the entries that follow.
- Tested on: UO-31 renal
- Test Summary: NCI tumour cell line growth inhibition, 48 h
*1 amine or outer side, *2 acyl side, *3 side chain or, on linkers, in order; H or OH if unused. Where a SMILES comes first, the peptide text is derived from it. Bridges are numbered along the chain shown (N, C = ends). [ ]: non-standard residue; d: D form. The star is where a group is joined. X34 = O=C(C(CCCCNO[*:3])N[*:1])[*:2]; Fmoc = O=C(OCC1c2ccccc2-c2ccccc21)*

What value of TGI on UO-31 renal does CC(NC(=O)c1ccc(NP(=O)(OCc2ccc([N+](=O)[O-])o2)N(C)CCCCCl)cc1)c1ccc(OCC2CCCCC2)c(C(N)=O)c1 (configuration not stated) have? > 100 µM

Query for UO-31 renal: what TGI does the record show for O=C1c2ccccc2C(=O)C1C(c1ccc(F)cc1)C1C(=O)c2ccccc2C1=O ? > 100 µM

Kindly state the measured TGI obtained for Clc1ccccc1CNc1c2ccccc2nc2ccccc12 with UO-31 renal. 6.96 µM

Hello, I am looking for reported TGI with UO-31 renal for COc1cc(-c2csc(NC(=O)Nc3ccc(C(F)(F)F)cc3)n2)cc(OC)c1OC . Could you help? 5.29 µM

Please state recorded TGI (tested on UO-31 renal) of O=C(N/N=C/c1ccc(O)cc1O)c1cccc(Nc2ccnc(C(F)(F)F)c2)c1 33.6 µM

GET /values?readout=TGI&system=UO-31 renal&item= CO/N=C\c1cc(O)c(O)c(/C=N/OC)c1 > 100 µM

// lookup TGI | system=UO-31 renal | key= O=C1OC(=O)C2CCCC3CCCC1C32 (configuration not stated) > 100 µM

// fetch UO-31 renal TGI for CCOC(=O)C(CC/C=C\c1ccccc1)N1CCC[C@H]1C(=O)OC (some centres not stated) > 100 µM

Lookup: TGI / UO-31 renal / C/C(=C\c1cc(C(F)(F)F)n(-c2ccc(N)cc2)n1)[C@@H]1C[C@@H]2O[C@]2(C)CCC[C@H](C)[C@H](O)[C@@H](C)C(=O)C(C)(C)[C@@H](O)CC(=O)O1 > 11.1 µM

Write down the reported TGI of NC(=O)CNC(=O)C1CCCN1C(=O)C1CCCCNOC(=O)CCC(NC(=O)OCC2c3ccccc3-c3ccccc32)C(=O)NC(Cc2c[nH]c3ccccc23)C(=O)N1 (configuration not stated) (Fmoc-EW[X34]PG-NH2; ester 1-3; configuration not given here) , test system: UO-31 renal. > 100 µM

// fetch UO-31 renal TGI for CCOC(=O)c1cc(Br)c(-c2cc(C)no2)[nH]1 > 100 µM

TGI of O=C1c2ccccc2C(=O)c2c(Nc3cc4c5c(ccc6c7ccc8c9c(cc(Nc%10cccc%11c%10C(=O)c%10ccccc%10C%11=O)c(c3c56)c97)-c3ccccc3C8=O)C(=O)c3ccccc3-4)cccc21 on UO-31 renal? > 100 µM

Query for UO-31 renal: what TGI does the record show for CCCCCCCCCCCCCCCCOP(=O)(O)OCC(NC(C)=O)C(=O)O (configuration not stated) ? > 100 µM

# get_value(readout= TGI, system= UO-31 renal) for O=C1C2C(C(=O)N1c1ccccc1)C1([N+](=O)[O-])C=C3c4ccccc4N(C(=O)c4ccccc4)C32C2C(=O)N(c3ccccc3)C(=O)C21 (configuration not stated) > 100 µM

Fill in the recorded TGI for this compound, with UO-31 renal as test system: CC(=[N-])N1CCC[C@@H](Nc2c3ccccc3nc3ccccc23)C1.[Cl][Pt].[NH-]CCC[NH-] 9.21 µM

Lab request: please report TGI under test system UO-31 renal for O=C(O/N=C1/CCC/C1=C\c1ccccc1)c1ccc(Cl)c(Cl)c1 > 100 µM

I'm curious: which TGI was measured for CC1=C(O)/C(=C/C(C)CCC/C(C)=C/C=C/C(C)CCCc2ccoc2)OC1=O (configuration not stated) tested on UO-31 renal? > 100 µM
